Molecular target: T1, recombinant human IL-17A (human, UniProt Q16552 24-155)
T1 construct: Bought recombinant protein (Peprotech AF-200-17); also called Peprotech AF-200-17
T1 sequence (Q16552 24-155): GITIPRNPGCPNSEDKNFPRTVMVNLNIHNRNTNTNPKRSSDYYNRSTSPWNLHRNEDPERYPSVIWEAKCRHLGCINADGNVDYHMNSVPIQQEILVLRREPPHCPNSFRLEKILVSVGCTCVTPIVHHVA
Assay: SPR (BIAcore T200), IL-17A coupled to CM5 chip, single-cycle kinetics;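 further: VH domain analytes, kinetic constants obtained by fitting blank-corrected sensorgrams to a 1:1 binding model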
ENDPOINT: Kd
The reply should read as a number followed by its unit.

1) VH 1.21.1 (clone 1.21 expressed from phagemid vector: with linker residues and His tag) (VHH, Human single VH domain) VHH: EVQLVESGGGLVLPGGSLRLSCAASGFTFSSYSMYWVRQAPGKGLEWVAEIKQDGSEQYYVDSVKGRFTISRDNAKNSLYLQMNSLRAEDTAVYYCAKGEILPLYFDYWGQGTLVTVSS :: 0.259 nM

We now examine a further binder.
### Prompt Dear colleague, please send me the reported Kd for Clone 1.14 (VHH, Human single VH domain) VHH: EVQLVESGGGLVQRGGSLRLSCAASGFTFSSYRMYWVRQAPGKGLEWVASIEQDGSEEYYVDSVKGRFTISRDNAKKSLFLQMNSLRAEDTAVYYCAKGEILPLYFDYWGQGTLVTVSS when you can.
### Response 0.913 nM
